Measured LD₅₀ Value Oral of individual entries
- Test system: Jcl:ICR mice
- PROTOCOL: Acute toxicity (LD50, Litchfield-Wilcoxon)
- Type: in vivo
- CONDITION_PARAMETERS: oral by stomach sonde, in distilled water, observed 7 days
Enter your answer as a number in mg/kg; do not include the unit.

MOLECULE	ASSAY_TARGET	REPORTED
O=C(O)c1ccc(NC2OC[C@@H](O)[C@H](O)[C@H]2O)cc1 (stereo partly drawn) [Compound 6, p-Aminobenzoic acid-N-D-xyloside]	Jcl:ICR mice	11750

Proceed to the following item.
Problem: Need LD₅₀ Value Oral of CC1OC(Nc2ccccc2C(=O)[O-])C(O)C(O)C1O.[Na+] [Compound 20, o-Aminobenzoic acid-N-L-rhamnoside] , thanks.
Result: 12500

----------
Consider the following molecules and their measured LD₅₀ Value Intraperitoneal readings.
- System: Jcl:ICR mice
- PROTOCOL: Acute toxicity (LD50, Litchfield-Wilcoxon)
- Type: in vivo
- CONDITION_PARAMETERS: intraperitoneal, in physiological saline solution, observed 7 days
Express the result in mg/kg but write the number alone.

MOLECULE	REPORTED
C[C@@H]1OC(Nc2ccc(C(=O)O)cc2)[C@H](O)[C@H](O)[C@H]1O (stereo partly drawn) [Compound 18, p-Aminobenzoic acid-N-L-rhamnoside]	15000
O=C([O-])c1ccccc1NC1OCC(O)C(O)C1O.[Na+] [Compound 4, o-Aminobenzoic acid-N-L-arabinoside]	7480
O=C(O)c1ccc(NC2OC[C@@H](O)[C@H](O)[C@H]2O)cc1 (stereo partly drawn) [Compound 6, p-Aminobenzoic acid-N-D-xyloside]	11040

Problem: Fill blank: measured LD₅₀ Value Intraperitoneal of the molecule O=C(O)c1ccc(NC2OC[C@H](O)[C@H](O)[C@H]2O)cc1 (stereo partly drawn) [Compound 2, p-Aminobenzoic acid-N-L-arabinoside] is ____.
Result: 10220

----------
Known Blood sugar value measured 10 minutes after the test of a selection of compounds
- Tested on: Wistar male rats
- PROTOCOL: Saccharide tolerance test (pancreas function) of rats given CsA with the present substance
- Type: in vivo
- CONDITION_PARAMETERS: CsA 25 mg/kg/day i.p. 3 weeks plus present substance 300 mg/kg/day orally
Give a bare numeral; the unit mg/dL is implied.

These solved cases illustrate the format of a correct answer.
COMPOUND	VALUE_UNIT	REPORTED
CC1OC(Nc2ccccc2C(=O)[O-])C(O)C(O)C1O.[Na+] [Compound 20, o-Aminobenzoic acid-N-L-rhamnoside]	mg/dL	576
O=C([O-])c1ccccc1NC1O[C@H](CO)[C@@H](O)[C@H](O)[C@H]1O.[Na+] (stereo partly drawn) [Compound 12, o-Aminobenzoic acid-N-D-glucoside]	mg/dL	589
O=C([O-])c1ccccc1NC1O[C@H](CO)[C@H](O)[C@H](O)[C@H]1O.[Na+] (stereo partly drawn) [Compound 16, o-Aminobenzoic acid-N-D-galactoside]	mg/dL	587
O=C(O)c1ccc(NC2O[C@H](CO)[C@@H](O)[C@H](O)[C@H]2O)cc1 (stereo partly drawn) [Compound 10, p-Aminobenzoic acid-N-D-glucoside]	mg/dL	612
O=C(O)c1ccc(NC2O[C@H](CO)[C@@H](O)[C@H](O)[C@@H]2O)cc1 (stereo partly drawn) [Compound 22, p-Aminobenzoic acid-N-D-mannoside]	mg/dL	569

Problem: # Blood sugar value measured 10 minutes after the test lookup, item O=C(O)c1ccccc1NC1OC[C@@H](O)[C@H](O)[C@H]1O (stereo partly drawn) [Compound 8, o-Aminobenzoic acid-N-D-xyloside]
Result: 605

----------
- Test system: TA100 of Salmonella typhimurium
- PROTOCOL: Reversion assay (reversion colony test) TA100
- Type: cell-based
- CONDITION_PARAMETERS: 5,000 µg/disk, 37°C for 2 days; Drug-free Control 149
- Procedure: In addition, a reversion assay was performed using TA98 and TA100 of Salmonella typhimurium (both are histidine-requiring bacteria). 10% by volume of 0.5 mM bithion solution containing 0.5 mM histidine was added to a soft agar solution (prepared with 6g of NaCl, 6g of agar and 1,000 ml of distilled water). […] The medium layered was cultured at 37°C for 2 days and number of reversion colonies was counted. […]
MEASUREMENT_NAME: No. of Reversion Colony TA100 (n/plate)
Kindly provide the numeric value in n/plate only, without the unit symbol.

COMPOUND	ASSAY_TARGET	No. of Reversion Colony TA100 / n/plate
O=C([O-])c1ccccc1NC1OCC(O)C(O)C1O.[Na+] [Compound 4, o-Aminobenzoic acid-N-L-arabinoside]	TA100 of Salmonella typhimurium	59

Problem: Please give the measured No. of Reversion Colony TA100 for this compound: O=C(O)c1cccc(NC2O[C@H](CO)[C@@H](O)[C@H](O)[C@@H]2O)c1 (stereo partly drawn) [Compound 24, m-Aminobenzoic acid-N-D-mannoside]
Result: 90

Problem: Report No. of Reversion Colony TA100 for O=C(O)c1ccc(NC2O[C@H](CO)[C@@H](O)[C@H](O)[C@H]2O)cc1 (stereo partly drawn) [Compound 10, p-Aminobenzoic acid-N-D-glucoside] please.
Result: 104

Problem: What value of measured No. of Reversion Colony TA100 is listed for O=C([O-])c1ccccc1NC1O[C@H](CO)[C@@H](O)[C@H](O)[C@H]1O.[Na+] (stereo partly drawn) [Compound 12, o-Aminobenzoic acid-N-D-glucoside] ?
Result: 151

Problem: Record request: No. of Reversion Colony TA100 value, item O=C(O)c1ccccc1NC1OC[C@@H](O)[C@H](O)[C@H]1O (stereo partly drawn) [Compound 8, o-Aminobenzoic acid-N-D-xyloside]
Result: 166

Problem: Requested field: No. of Reversion Colony TA100. Item: O=C(O)c1ccc(NC2O[C@H](CO)[C@H](O)[C@H](O)[C@H]2O)cc1 (stereo partly drawn) [Compound 14, p-Aminobenzoic acid-N-D-galactoside]
Result: 51

----------
- System: Bacillus subtilis H17
- PROTOCOL: Mutagenicity Rec-assay, recombination repair proficient strain
- CONDITION_PARAMETERS: 5,000 µg/disk, 16 hours at 37°C
MEASUREMENT_NAME: Growth Inhibited Area H17 (mm)
Provide only the numeric value, understood in mm.

Reference set, count: 5
COMPOUND	MEASUREMENT_NAME	VALUE_UNIT	REPORTED
O=C(O)c1ccc(NC2O[C@H](CO)[C@@H](O)[C@H](O)[C@H]2O)cc1 (stereo partly drawn) [Compound 10, p-Aminobenzoic acid-N-D-glucoside]	Growth Inhibited Area H17	mm	0
O=C(O)c1ccc(NC2O[C@H](CO)[C@@H](O)[C@H](O)[C@@H]2O)cc1 (stereo partly drawn) [Compound 22, p-Aminobenzoic acid-N-D-mannoside]	Growth Inhibited Area H17	mm	0
O=C(O)c1cccc(NC2O[C@H](CO)[C@@H](O)[C@H](O)[C@@H]2O)c1 (stereo partly drawn) [Compound 24, m-Aminobenzoic acid-N-D-mannoside]	Growth Inhibited Area H17	mm	1
O=C([O-])c1ccccc1NC1O[C@H](CO)[C@H](O)[C@H](O)[C@H]1O.[Na+] (stereo partly drawn) [Compound 16, o-Aminobenzoic acid-N-D-galactoside]	Growth Inhibited Area H17	mm	1
O=C([O-])c1ccccc1NC1O[C@H](CO)[C@@H](O)[C@H](O)[C@H]1O.[Na+] (stereo partly drawn) [Compound 12, o-Aminobenzoic acid-N-D-glucoside]	Growth Inhibited Area H17	mm	2

Problem: Find the recorded Growth Inhibited Area H17 belonging to CC1OC(Nc2ccccc2C(=O)[O-])C(O)C(O)C1O.[Na+] [Compound 20, o-Aminobenzoic acid-N-L-rhamnoside] and report it.
Result: 2

----------
- Test system: Jcl:ICR mice
- PROTOCOL: Acute toxicity (LD50, Litchfield-Wilcoxon)
- Type: in vivo
- CONDITION_PARAMETERS: intraperitoneal, in physiological saline solution, observed 7 days
A collection of molecules and their measured LD₅₀ Value Intraperitoneal

Examples with answers:
MOLECULE	LD₅₀ Value Intraperitoneal
O=C(O)c1cccc(NC2O[C@H](CO)[C@@H](O)[C@H](O)[C@@H]2O)c1 (stereo partly drawn) [Compound 24, m-Aminobenzoic acid-N-D-mannoside]	> 10.00 g/kg
O=C(O)c1ccc(NC2O[C@H](CO)[C@@H](O)[C@H](O)[C@@H]2O)cc1 (stereo partly drawn) [Compound 22, p-Aminobenzoic acid-N-D-mannoside]	> 10.00 g/kg

Next molecule, LD₅₀ Value Intraperitoneal to be filled in.
Problem: // lookup LD₅₀ Value Intraperitoneal | system=Jcl:ICR mice | key= O=C([O-])c1ccccc1NC1O[C@H](CO)[C@H](O)[C@H](O)[C@H]1O.[Na+] (stereo partly drawn) [Compound 16, o-Aminobenzoic acid-N-D-galactoside]
Result: 7.42 g/kg

----------
Entries and their measured LD₅₀ Value Oral follow.
- Test system: Jcl:ICR mice
- PROTOCOL: Acute toxicity (LD50, Litchfield-Wilcoxon)
- Type: in vivo
- CONDITION_PARAMETERS: oral by stomach sonde, in distilled water, observed 7 days
The response must be a number in g/kg with no trailing unit.

// worked examples, LD₅₀ Value Oral included
COMPOUND	VALUE_UNIT	LD₅₀ Value Oral
O=C(O)c1ccc(NC2OC[C@H](O)[C@H](O)[C@H]2O)cc1 (stereo partly drawn) [Compound 2, p-Aminobenzoic acid-N-L-arabinoside]	g/kg	10.80
O=C([O-])c1ccccc1NC1O[C@H](CO)[C@H](O)[C@H](O)[C@H]1O.[Na+] (stereo partly drawn) [Compound 16, o-Aminobenzoic acid-N-D-galactoside]	g/kg	6.10
O=C(O)c1ccc(NC2O[C@H](CO)[C@H](O)[C@H](O)[C@H]2O)cc1 (stereo partly drawn) [Compound 14, p-Aminobenzoic acid-N-D-galactoside]	g/kg	14.55
C[C@@H]1OC(Nc2ccc(C(=O)O)cc2)[C@H](O)[C@H](O)[C@H]1O (stereo partly drawn) [Compound 18, p-Aminobenzoic acid-N-L-rhamnoside]	g/kg	12.80
O=C(O)c1ccccc1NC1OC[C@@H](O)[C@H](O)[C@H]1O (stereo partly drawn) [Compound 8, o-Aminobenzoic acid-N-D-xyloside]	g/kg	6.35

Problem: Data request, read-out LD₅₀ Value Oral, for O=C([O-])c1ccccc1NC1O[C@H](CO)[C@@H](O)[C@H](O)[C@H]1O.[Na+] (stereo partly drawn) [Compound 12, o-Aminobenzoic acid-N-D-glucoside]
Result: 8.96

Problem: I am curious: what LD₅₀ Value Oral value has been reported for O=C([O-])c1ccccc1NC1OCC(O)C(O)C1O.[Na+] [Compound 4, o-Aminobenzoic acid-N-L-arabinoside] ?
Result: 6.35
